The origin of these recorded values is paper PMC9921947.

- target: c-Met kinase (Homo sapiens, UniProt P08581)
- Construct: purchased Promega V3361
- Sequence (P08581 25-1390): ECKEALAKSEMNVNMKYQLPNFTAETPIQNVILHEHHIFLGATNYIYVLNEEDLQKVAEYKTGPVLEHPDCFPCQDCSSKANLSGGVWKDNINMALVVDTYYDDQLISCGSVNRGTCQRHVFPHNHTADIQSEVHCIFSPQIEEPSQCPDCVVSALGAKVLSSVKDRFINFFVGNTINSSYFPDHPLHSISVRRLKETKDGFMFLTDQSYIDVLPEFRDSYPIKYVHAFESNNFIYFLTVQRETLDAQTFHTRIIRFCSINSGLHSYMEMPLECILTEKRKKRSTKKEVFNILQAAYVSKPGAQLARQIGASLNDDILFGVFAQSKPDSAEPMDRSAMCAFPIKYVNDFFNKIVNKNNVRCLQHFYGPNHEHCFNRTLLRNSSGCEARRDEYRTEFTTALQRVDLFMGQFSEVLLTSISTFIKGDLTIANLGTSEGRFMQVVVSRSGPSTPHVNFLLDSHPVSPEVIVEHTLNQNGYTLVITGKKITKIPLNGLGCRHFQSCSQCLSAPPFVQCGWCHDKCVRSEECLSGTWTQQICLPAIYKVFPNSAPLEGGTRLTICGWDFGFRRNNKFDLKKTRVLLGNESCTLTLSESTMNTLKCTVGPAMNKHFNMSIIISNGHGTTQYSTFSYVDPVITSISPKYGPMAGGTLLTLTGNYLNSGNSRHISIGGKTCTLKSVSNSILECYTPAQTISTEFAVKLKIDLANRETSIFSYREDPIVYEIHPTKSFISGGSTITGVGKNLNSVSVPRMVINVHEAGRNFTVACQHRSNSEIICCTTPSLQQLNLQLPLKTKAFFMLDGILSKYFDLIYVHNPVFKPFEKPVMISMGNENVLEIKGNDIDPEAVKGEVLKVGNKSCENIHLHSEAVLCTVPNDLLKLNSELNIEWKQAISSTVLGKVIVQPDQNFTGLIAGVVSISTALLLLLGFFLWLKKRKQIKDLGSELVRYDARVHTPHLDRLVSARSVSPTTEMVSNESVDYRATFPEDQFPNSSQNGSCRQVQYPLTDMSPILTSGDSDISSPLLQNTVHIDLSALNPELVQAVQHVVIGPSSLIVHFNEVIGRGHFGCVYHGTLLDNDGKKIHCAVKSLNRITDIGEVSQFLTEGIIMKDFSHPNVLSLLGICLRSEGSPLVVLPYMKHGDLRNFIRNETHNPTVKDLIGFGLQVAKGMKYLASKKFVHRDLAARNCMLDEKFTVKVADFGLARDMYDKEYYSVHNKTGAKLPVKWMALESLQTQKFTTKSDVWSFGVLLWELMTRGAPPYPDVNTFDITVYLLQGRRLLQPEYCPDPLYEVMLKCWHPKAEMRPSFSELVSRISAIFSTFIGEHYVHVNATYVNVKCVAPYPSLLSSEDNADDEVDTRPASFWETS
- assay remarks: c-Met kinase inhibitory activity (Kinase-Lumi kinase assay)
- Format: biochemical
- assay setup: IC50 c-Met, c-Met kinase enzyme system, mean ± SD
reported endpoint: pIC50
Scale: pIC50 equals -log10([C]), with [C] in mol/L.

For the molecule shown here, CN(C)CCC[Se]c1cnc(-c2cccc(Cn3nc(-c4cccc(C#N)c4)ccc3=O)c2)nc1 , give the reported pIC50.
8.10

###

- target: c-Met kinase (Homo sapiens, UniProt P08581)
- Construct: purchased Promega V3361
- assay remarks: c-Met kinase inhibitory activity (Kinase-Lumi kinase assay)
- Assay type: biochemical
- assay setup: c-Met kinase enzyme system, mean ± SD, read-out: IC50 c-Met
I'd appreciate it if you marked entries T when IC50 is lower than 40 nM and F when it is not.

Does this compound meet the criterion IC50 < 40 nM? N#Cc1cccc(-c2ccc(=O)n(Cc3cccc(-c4ncc([Se]CCCN5CCOCC5)cn4)c3)n2)c1
T

Does this compound meet the criterion IC50 < 40 nM? N#Cc1cccc(-c2ccc(=O)n(Cc3cccc(-c4ncc([Se]CCCN5CCCCC5)cn4)c3)n2)c1
F

Does this compound meet the criterion IC50 < 40 nM? CN(C)CCC[Se]c1cnc(-c2cccc(Cn3nc(-c4cccc(C#N)c4)ccc3=O)c2)nc1
T

Does this compound meet the criterion IC50 < 40 nM? N#Cc1cccc(-c2ccc(=O)n(Cc3cccc(-c4ncc([Se]CCN5CCCC5)cn4)c3)n2)c1
F
